FYI, the data here is from ChEMBL document CHEMBL2074503.

# measured_target: Solute carrier organic anion transporter family member 1B3 (OATP1B3) (Homo sapiens)
# Sequence (Q9NPD5 whole entry): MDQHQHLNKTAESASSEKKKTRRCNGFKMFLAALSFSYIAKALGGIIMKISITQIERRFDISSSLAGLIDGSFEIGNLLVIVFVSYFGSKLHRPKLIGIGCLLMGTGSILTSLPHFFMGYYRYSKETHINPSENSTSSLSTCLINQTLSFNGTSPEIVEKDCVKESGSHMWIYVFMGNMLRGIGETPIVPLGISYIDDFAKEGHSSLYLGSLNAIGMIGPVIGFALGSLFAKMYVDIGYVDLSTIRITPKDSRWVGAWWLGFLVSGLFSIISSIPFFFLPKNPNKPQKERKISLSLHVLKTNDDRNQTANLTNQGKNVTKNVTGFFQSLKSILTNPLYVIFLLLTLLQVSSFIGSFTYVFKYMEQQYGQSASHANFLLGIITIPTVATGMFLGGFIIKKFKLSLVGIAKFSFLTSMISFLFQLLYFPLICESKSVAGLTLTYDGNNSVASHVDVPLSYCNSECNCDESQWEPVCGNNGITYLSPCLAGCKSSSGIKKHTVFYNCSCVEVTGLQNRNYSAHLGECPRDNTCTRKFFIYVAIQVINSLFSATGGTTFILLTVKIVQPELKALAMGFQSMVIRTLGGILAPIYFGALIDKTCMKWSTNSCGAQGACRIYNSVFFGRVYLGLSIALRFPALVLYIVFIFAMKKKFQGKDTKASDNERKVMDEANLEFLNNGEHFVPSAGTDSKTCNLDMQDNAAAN
# experiment_notes: TP_TRANSPORTER: uptake in Xenopus laevis oocytes
# Format: functional, cell-based, Oocyte
# experimental_setup: Xenopus laevis oocytes expressing OATP1B3 (SLCO1B3)
readout_type: Km (µM)

[
  {
    "smiles_representation": "C=CC1=C(C)/C(=C/c2[nH]c(Cc3[nH]c(/C=C4\\NC(=O)C(C)=C4C=C)c(C)c3CCC(=O)O)c(CCC(=O)O)c2C)NC1=O",
    "unit_abbrev": "µM",
    "value_measured": 0.0391
  }
]
